Origin of the recorded values: PubChem BioAssay

# method: P. aeruginosa biofilm formation inhibitors, primary screen, strain PAO1, LB-PBS medium, absorbance 600 nm (AID 1176); further: test concentration not given here
# experimental.parameters: P. aeruginosa PAO1 growth/biofilm, A600, 12 h; higher = more signal
Recorded z-score values for a group of compounds are listed next.
Provide a numeric answer; units are not to be included.

compound=CC(C)C[C@@H]1NC(=O)[C@@H]2C[C@H](C(=O)NCCCCCC[N+](C)(C)C)[C@H](c3cccc(OCCO)c3)N2C1=O readout_type=z-score meas_value=0.683

[ask] State its z-score for this compound: C=CC[C@H](OC(=O)Nc1ccc(SC)cc1)c1ccc(OCCO)cc1
[reply] 0.119

[ask] Retrieve z-score measured for CCOC(=O)C1=CCN(S(=O)(=O)c2ccc(C)cc2)C1c1ccccc1 (stereo not drawn) and print it.
[reply] 0.449

[ask] Provide z-score value for the following compound: CC(C)(C)OC(=O)CC[C@]12N=C(c3ccc(OCCCO)cc3)O[C@H]1c1ccccc1N(Cc1ccccc1)C2=O
[reply] 0.95
